Test system: human intestinal epithelial (Caco2) cells
assay.remarks: Cytotoxicity assay, lactate dehydrogenase release
Format: cell-based
measurement.parameters: compound 2mg/ml, 24 h, LDH
measured.property: % of living Caco2 cells (%)

1. CSCCC1NC(=O)C2CCCN2C1=O (stereo not shown): 4.77
2. O=C1NC(Cc2ccccc2)C(=O)N2CCCC12 (stereo not shown): 4.28
3. O=C(O)Cc1ccccc1: 6.53
4. O=Cc1ccc(O)cc1 [4FP, p-hydroxybenzaldehyde]: 25.94
